Target: HLA-A*68:02
Assay: IEDB peptide-MHC binding, purified MHC/competitive/radioactivity; bounds were set here for any values at or beyond the usual limits of such assays
Settings: source organism: Vaccinia virus WR
REPORTED PROPERTY: log10 IC50 (log10 of the value in nM)
Plainly stated, the numbers are log10 of IC50 given in nM.

// query Look up and state reported log10 IC50 for NVTGFMEEEI
// result 3.17

// query Look up and state reported log10 IC50 for RIVVALSSLV
// result 0.93

// query Look up and state reported log10 IC50 for FTNSQIFNII
// result 1.20

// query Look up and state reported log10 IC50 for LVKESMASL
// result 3.32

// query Look up and state reported log10 IC50 for YLYTEYFLFL
// result 1.88

// query Look up and state reported log10 IC50 for NITTLLNET
// result 3.19

// query Look up and state reported log10 IC50 for TLISSDGARV
// result 2.73

// query Look up and state reported log10 IC50 for STYPGNTFV
// result -0.62

// query Look up and state reported log10 IC50 for RTMPNESRV
// result 1.15

// query Look up and state reported log10 IC50 for MLHNPTSET
// result 3.20

// query Look up and state reported log10 IC50 for FIISTLNKI
// result 3.18

// query Look up and state reported log10 IC50 for SVNASKTINA
// result 2.80

// query Look up and state reported log10 IC50 for YTEAAAATCA
// result 2.20

// query Look up and state reported log10 IC50 for AITLVVISVI
// result 3.38

// query Look up and state reported log10 IC50 for TLLNETAKV
// result 3.22

// query Look up and state reported log10 IC50 for NTLIQYRQQL
// result 2.94

// query Look up and state reported log10 IC50 for SIFVSTMPV
// result 1.00

// query Look up and state reported log10 IC50 for ALYSPPLISI
// result 2.51

// query Look up and state reported log10 IC50 for IASSMKGENV
// result 2.94

// query Look up and state reported log10 IC50 for GIYNCCESNI
// result 3.58

// query Look up and state reported log10 IC50 for AISAVYFKA
// result 1.89

// query Look up and state reported log10 IC50 for AAIDRQVSV
// result 3.16

// query Look up and state reported log10 IC50 for ETIQKDINIT
// result 1.84

// query Look up and state reported log10 IC50 for STDQDTMLFA
// result 3.19

// query Look up and state reported log10 IC50 for CTMERTNDL
// result 2.01

// query Look up and state reported log10 IC50 for WISDNTHIYL
// result 0.68

// query Look up and state reported log10 IC50 for TVEFDRDKVV
// result 3.42

// query Look up and state reported log10 IC50 for KVLSIMAFIL
// result 3.47

// query Look up and state reported log10 IC50 for FTDCRTIDAI
// result 2.23

// query Look up and state reported log10 IC50 for YALEPRKEI
// result 2.85

// query Look up and state reported log10 IC50 for TICLKNEGV
// result 0.76

// query Look up and state reported log10 IC50 for YIALCKVTV
// result 1.68

// query Look up and state reported log10 IC50 for LISLINSLV
// result 1.83

// query Look up and state reported log10 IC50 for CVDIFTEGKI
// result 3.12

// query Look up and state reported log10 IC50 for TISWMMKLGI
// result 3.17

// query Look up and state reported log10 IC50 for SQIFNIISYI
// result 1.68

// query Look up and state reported log10 IC50 for ETLFGSYIT
// result 2.67

// query Look up and state reported log10 IC50 for DTGKKELAL
// result 3.53

// query Look up and state reported log10 IC50 for IMSIGFEARI
// result 1.79

// query Look up and state reported log10 IC50 for NTNQGNILM
// result 2.82

// query Look up and state reported log10 IC50 for RAKRKPAMST
// result 2.74

// query Look up and state reported log10 IC50 for LMIFISSFL
// result 1.54

// query Look up and state reported log10 IC50 for FTELENKKV
// result 3.60

// query Look up and state reported log10 IC50 for DTCLLAISA
// result 2.50

// query Look up and state reported log10 IC50 for NVISKIYTL
// result 0.66

// query Look up and state reported log10 IC50 for DLNRMPTDML
// result 3.60

// query Look up and state reported log10 IC50 for QQFANVISKI
// result 3.02

// query Look up and state reported log10 IC50 for ELSRLRYNL
// result 0.00

// query Look up and state reported log10 IC50 for EAFETQSGA
// result 2.02

// query Look up and state reported log10 IC50 for ETKRNIARHL
// result 2.86

// query Look up and state reported log10 IC50 for TVDFTDCRT
// result 2.79

// query Look up and state reported log10 IC50 for DTIESAKTKI
// result 2.76

// query Look up and state reported log10 IC50 for EIVKNIREGT
// result 2.63

// query Look up and state reported log10 IC50 for KIYTLIYRQL
// result 3.67

// query Look up and state reported log10 IC50 for NVFISPASI
// result 0.28

// query Look up and state reported log10 IC50 for AMLKSKNINI
// result 3.68

// query Look up and state reported log10 IC50 for VLALYSPPL
// result 3.15

// query Look up and state reported log10 IC50 for FVSTMPVET
// result 2.51

// query Look up and state reported log10 IC50 for NIYRLFTRCA
// result 2.40

// query Look up and state reported log10 IC50 for IVAAVIIMAI
// result 1.98

// query Look up and state reported log10 IC50 for ILPDKIDGL
// result 3.60

// query Look up and state reported log10 IC50 for ILLILSCIFA
// result 3.44

// query Look up and state reported log10 IC50 for IIYSKAGNIL
// result 3.59

// query Look up and state reported log10 IC50 for SAFNDDGIYI
// result 0.82

// query Look up and state reported log10 IC50 for FVMCLEAKT
// result 3.18

// query Look up and state reported log10 IC50 for RVTTELNIV
// result 2.68

// query Look up and state reported log10 IC50 for EIMDKEQLL
// result 2.46

// query Look up and state reported log10 IC50 for FIQWTGGNI
// result 2.65

// query Look up and state reported log10 IC50 for KLVETGFVI
// result 3.03

// query Look up and state reported log10 IC50 for NVSRVVECLT
// result 2.74

// query Look up and state reported log10 IC50 for IVYGRSNAI
// result 0.79

// query Look up and state reported log10 IC50 for LAYYNSCMLT
// result 0.69

// query Look up and state reported log10 IC50 for EVRYIDITNI
// result 1.61

// query Look up and state reported log10 IC50 for YIPPCQCTV
// result 2.36

// query Look up and state reported log10 IC50 for NASKFVYVSV
// result 2.00

// query Look up and state reported log10 IC50 for SVIFYFISI
// result 0.23

// query Look up and state reported log10 IC50 for TIDKSSPLYI
// result 3.19

// query Look up and state reported log10 IC50 for MLLNVQTLI
// result 2.33

// query Look up and state reported log10 IC50 for NLILNFLDWI
// result 3.57

// query Look up and state reported log10 IC50 for SMSQELAELL
// result 3.11

// query Look up and state reported log10 IC50 for YIILFILFFA
// result 2.43

// query Look up and state reported log10 IC50 for TVPTNDHIPV
// result 1.76

// query Look up and state reported log10 IC50 for LVMDKNHAI
// result 1.00

// query Look up and state reported log10 IC50 for SIRCVKYLL
// result 2.39

// query Look up and state reported log10 IC50 for LTSVDIETA
// result 3.09

// query Look up and state reported log10 IC50 for TISGNIYSA
// result 1.04

// query Look up and state reported log10 IC50 for FLFWFLKSGA
// result 1.58
